System: MS2 coat protein
test method notes: apparent KD of MS2 coat protein, switch OFF state (with FMN for OFF switches, without FMN for ON switches); designed switch direction (-1 OFF switch, 1 ON switch): -1; higher = weaker reporter binding
experimental setup: FMN input: 0 or 200 uM; Eterna round: R93 (includes R88 designs)
value type: apparent KD of MS2 coat protein

AAGAAGAGAGGAUAUACAUAAUAAAAGAAAAGAAACAAAGAACAUGAGGAUCACCCAUGUAGAAGGCUCAAGAA [Khasekhemre Neferhotep I]; 0.051 µM
AAAACACAUGAGGAUCACCCAUGUGAGGAUAUGCUAUGGAAAAUAAAAAUAAAACAUAGCAGAAGGCACAAGGA [Denovo 17]; 0.05 µM

Could you now look at the following sequence, please?
Observed apparent KD of MS2 coat protein, MS2 coat protein, AAGAAUCGAGGAUAUACAUGAGGAUCACCCAUGUAAAAGAAAGAAAAGGGAAAGAAAAGUAGAAGGCGAAAGAA [Userkhaure Setnakht] : 0.0353 µM

---

Property: apparent KD of MS2 coat protein; scope: individual sequences
Tested on: MS2 coat protein
test method notes: apparent KD of MS2 coat protein; designed switch direction (-1 OFF switch, 1 ON switch): 1; higher = weaker reporter binding
experimental setup: input ligand: FMN 200 uM
Record the value in nM, omitting the unit from your answer.

The following sequences have reported results that may help.
UGGUACAUGGGAGGAUAUCAUGUAGAAACAUGAGGAUCACCCAUGUAGAUGGCACGAUUCGUGAAUGAGAAGGCCCAUGUACCU [JL SSNG1 3.60] (Eterna round: R96, puzzle: Same State NG 2); 36.8
GAAAGCAUGGGAGGAUAUAGCCUCUAUGAAAGGCUAGAAGGCCCUGGCCACAUGAGGAUCACCCAUGUGAAAUAAAUAGAAGAA [Raarceza] (Eterna round: R96, puzzle: Same State NG 1); 28.9
AUUAUUUCAUGAGGAUAUGGCACCUUAUUGGUGCCAGAAGGCAUGUCAUUAGACAUGAGGAUCACCCAUGUAUUAUAUUAUAUA [Fiskers NG1ss - 13] (Eterna round: R96, puzzle: Same State NG 1); 41.5

Could you now look at the following sequence, please?
// field: apparent KD of MS2 coat protein; key: GAGUGGCAGUUAGGAUAUGUAGUGAUAAUGAUAACAGAAGGAACAGACAUGAGGAUCACCCAUGUAGGACUAAUCCAGAGAGAG [Parity 35 - Jieux - Same State NG 1] (Eterna round: R96, puzzle: Same State NG 1) ; value = 26.2

---

Tested on: MS2 coat protein
test method notes: apparent KD of MS2 coat protein; designed switch direction (-1 OFF switch, 1 ON switch): -1; higher = weaker reporter binding
experimental setup: input ligand: FMN 200 uM
value type: apparent KD of MS2 coat protein (nM)
Record the value in nM, omitting the unit from your answer.

AUUCAACAUGAGGAUCACCCAUGUGAGGAUAUGCGAGUGCAGACUUCGGUUUGAUAGAGCAGAAGGCGCAGGUA [EX1 #13] (Eterna round: R97, puzzle: Exclusion 1); 69.6
AGUACUAUCACGAAAGUGAUAGUACAAAUAGCAAGUGAAACAUGAGGAUCACCCAUGUCCUCAUUUGCUCGUCUUAU [Mat - Sensor v2 -ver2- JL mod - D65] (Eterna round: R96, puzzle: Sensor v2, turn-off variant 2); 12.1
AGCUGUGGCCGAGGAUAUACAUGAGGAUCACCCAUGUUACAUAAUUAGGCCUGGUAACAGGCUCCGUAGAAGGCGGUCUCAGCA [Eli eng2 - 005] (Eterna round: R96, puzzle: Exclusion NG 2); 13
GCACGGAGUGCAGGAUAUCUGUGCGAUUAGCUCAGAGAAGGGCACAUGAGGAUCACCCAUGUGUAUAAAACACAAAAUCCGUGC [Eli exng1 - 066] (Eterna round: R96, puzzle: Exclusion NG 1); 22.1
UCUCGCGGGCAAGGAUAUCCCACGCUGUUCUGGCCCGUGUCUGUUACAUGAGGAUCACCCAUGUGGGAGAAGGUGCACCAGGGC [Design 43] (Eterna round: R96, puzzle: Exclusion NG 2); 30.9
AGUACUAACACGAAAGUGUUAGUUCAAUAAGCUUGUGAAACAUGAGGAUCACCCAUGUCCUCAUAAGCUCGUCUUAU [salish99_TOv2_r3_040] (Eterna round: R96, puzzle: Sensor v3, turn-off variant 2); 15.2

// field: apparent KD of MS2 coat protein; key: CAUGAUUGGCGAGGAUAUUGAUCUAGUUGGCGACGAGAAGGCGCCUGUCACAUGAGGAUCACCCAUGUGUGUCUGGUGAAUGAG [Ex NG1 #86] (Eterna round: R96, puzzle: Exclusion NG 1) ; value = 82.5

// field: apparent KD of MS2 coat protein; key: CUAUGAGUAGGAUAUGAGCCAAAAUACAUGAGGAUCACCCAUGUCGGGUUCAUGGAGGGCUCAGAAGGAUUCAAUA [Exclusion 5 - Laarte Mod2] (Eterna round: R97, puzzle: Exclusion 5) ; value = 59.8

// field: apparent KD of MS2 coat protein; key: ACUUAUUGAGGAUAUACAUUAAAUUACAUGAGGAUCACCCAUGUUCUUCAAUGUAUAUAUGUAGAAGGCAGAAGAU [Mat - Exclusion 5 - JL Mod - D20] (Eterna round: R97, puzzle: Exclusion 5) ; value = 18.2
